protocol.notes: soluble on expression in E. coli; label from the status in PepcDB or PDB records

{"columns": ["biopolymer.sequence", "soluble on expression in E. coli"],
 "data": [
  ["MAHHHHHHMSFCDFVVVTNNSVEIFKISFDNLIITPIKKHFIKSKHCWYDEKSSYICLLSANKSNVILPYLLSNNNVIKLSKIELNILKNDNINKNDIEIITLYNETYCIHKDFKNGRISFRCLSSTIYFDYVLDLFYNGVIETFSLDNLFGVFNHTNQYVYLFDIKYNKKKTTIHSFDDNNNHTINISYLTTPKQFKTQINFNHMAFEPYNLLIDNHYGNVYKVKVDYDVLMLQICQHFSNLVRT", "soluble"],
  ["MRLKDLGERALLARLAPLGYPPEAPLPPGDDAGGVWAEGRAWLLKTDGFLYREVALKGMGPFEVGFRGVAATASDLLAKMGRPLGFTLGLFLPEDLEEGFVLELVRGAAEAAKRLGAFLLGGDTNRGVEVALTVSGYALAEAPLPRKALPGDLLYLAGDRWGRTGAAIRAHYEGRSLEGFPKIREAAFYPLPRLELLALSGLLRGSLDSSDGLAETLWQLADLGVGVEVEALPLYPDVLAFAGSEEAALELVLYGGEEFEAVLVVPQEGAAAVEARAKAKGLPLFRAGRVVAGEGVYLRGAPLPRKGYAHF", "soluble"]
]}

###

protocol.notes: soluble on expression in E. coli; label from the status in PepcDB or PDB records
test.readout: soluble on expression in E. coli

{"columns": ["biopolymer.sequence", "observed.result"],
 "data": [
  ["LRYNLWFGVYDGKEIKLSENFEESFLKAENPSPLPFNVSEVGAKALGKDYYRILRKTALAVSEKMVEKELRREDRYVVALVKALEEIDESINMLNEKLEDIRAVKESEITEKFEKKIRELRELRRDVEREIEEVMEKIAPNMTELVGAKVAAKLLERAGSMERLVRLPASKIQVIGAEKSLYKAFARMKKGKKAKIPKHGIIFLHPFIRTLPKAKRGKMARFLAAKLAIAAKIDYFRGEIDESLYESIRRRYEELRRK", "soluble"],
  ["MSLALGSYIERRGELETYFDRTAADTWAKLTSDAPVSGIRATVRAGRDEMRNTLLSWLPADMTGTRLLDAGCGTGALSIEAARRGAKIVAIDLSPTLVAVARERLPDDIDPAAIDFRSGDMLDPELGEFDFVVAMDSLIHYLPHDICRMLATLASRTRQSMAVTFAPKTPLLTLMHFVGGFFPRADRAPAIEPISEKTLRGLVAEDPLLAQWQPGRTHRVSSGFYTSQALEMVREGHHHHHH", "soluble"]
]}

###

protocol.notes: soluble on expression in E. coli; label from the status in PepcDB or PDB records
test.readout: soluble on expression in E. coli

{"columns": ["biopolymer.sequence", "observed.result"],
 "data": [
  ["MGSDKIHHHHHHMALKKICLENFTVFDKMEIEFCDGVNVLIGENGTGKTHIMKLLYAACQSAHASKKVISFPQKIVQVFKPDHANISRLLSRKAGNGSAKVHVISGNNTLKTSFNLKTKNWDAEVVGAQAWEKQLSNLTSTFIPAKEILSNSKNLVNAINVGNVDFDDTYKDIISVASVDINRGPNNVQKEKYLQILQDITDGKVSYENEEFYLLPGNQAKLEFQLVAEGMRKIALLWQLIKNGTLEQGTVLFWDEPEANINPKHIPALVEVLLNLQGDGVQIFIATHDYVLAKYLEIRMADANKIRFHSLYKKEGRVEVESNHNFKDLVNNSIAEAYNKLLDEVFEQTTKG", "not soluble"],
  ["KQEVSGQVIYLNRGKSFFAFIKEYLEKETGYKKGVKWNRIALDEVEIITSEMSQARKENIKEAFLDGAVKIIIGTATIREGIDLQRKGTVIYNCYPDWNPTDIRQLEGRIWRQGNE", "not soluble"],
  ["MSLVNDITYGREAEVWPRDYSMLARRIQFLRFNDYPIKLVSSNGHSIIGYISKFNQKENMILASDEAKGNNRVEVKLESIASLEELLVGKDFTTRLIVGDVFNNQPCPPTKKDFFSICNKCFKQGIGIKVHMLDGRILTGKTTGVNACQVGIIKSNGNHMQIMFDWVSRITSSDYSGEGHHHHHH", "soluble"],
  ["MGNTSSERAALERHGGHKTPRRDSSGGTKDGDRPKILMDSPEDADLFHSEEIKAPEKEEFLAWQHDLEVNDKAPAQARPTVFRWTGGGKEVYLSGSFNNWSKLPLTRSHNNFVAILDLPEGEHQYKFFVDGQWTHDPSEPIVTSQLGTVNNIIQVKKTDFEVFDALMVDSQKCSDVSELSSSPPGPYHQEPYVCKPEERFRAPPILPPHLLQVILNKDTGISCDPALLPEPNHVMLNHLYALSIKDGVMVLSATHRYKKKYVTTLLYKPI", "soluble"],
  ["MDTSSFETDLSLFKYDDLEALPDEYRELTPTARTERIEAARAELGDDVVVLGHNYQRREIVEHADFVGDSYQLSKEAANADADYVIFGGVTFMAESADIITDDSQSVILPSMEASCPMAGMAEALQVDAAWADITAAAPDETIIPITYMNSYADLKAFCAEQGGLVCTSSNAHRAFEWAFERGDKVLFLPDKHLGENTAHRLGMADATVEWDPWAAEGKTAEEVADADIVLWDGYCQVHERFTPEHVAEVRADHEDANVVVHPECRREVVEAADVVGSTATITETVADADPGETWAIGTEIHLANHLQRWHPEVNVVPLCGDACMDCNAMRQIDPNYLAWVLEELVEGRERNVIEVDSEEAELAQVGLDRMLELLEHHHHHH", "not soluble"],
  ["STTEIGWWKLTFLRKKKSTPKVLYEIPDTYAQTEGDAEPPRPDAGGPNSDFNTRLEKIVDKSTKGKHVKVSNSGRFKEKKKVRATLAENPNLFDDHEEGRSSK", "soluble"]
]}
